System: SK-MEL-2 melanoma
Experiment: NCI-60 one-dose screen, 48 h (100 = growth as untreated, 0 = no growth, -100 = all killed)
Settings: 10 µM unless noted
Description: Growth inhibition of the SK-MEL-2 human tumor cell line is measured as a screen for anti-cancer activity. Cells are grown in 96 well plates and exposed to the test compound for 48 hours. Compounds are tested at a single concentration, which is 10^-5 M for most compounds. The reported endpoint is percent growth (GI% or GIPRCNT), where numbers from 0 - 100% represent growth inhibition, and numbers from -100% - 0 represent cell death. For example, a value of 40 represents 60% growth inhibition. […]
Compounds without any hit were thinned out: in the full panel of roughly 83,000, 20% have a hit.
Some compounds, each annotated with its measured growth.
Express the result in % but write the number alone.

COc1cccc(-c2nn(-c3ccccc3)cc2-c2ccnc(NCCCNS(=O)(=O)c3ccc(Cl)cc3)c2)c1: 47.1
O=C(O)c1cccc2c1-c1ccc(Cl)cc1C2: 102
C=C(C)[C@@H]1CC[C@]2(C)[C@H](CC[C@@H]3[C@H]4[C@H]5OC[C@@]4(CCC5(C)C)CC[C@]32C)[C@@]1(C)CCCN: 101
C[C@]12CC[C@@H]3c4ccc(O)cc4CC[C@H]3[C@@H]1C[C@H](O)[C@@H]2O: 104
O=C1C=Cc2ncccc2C1=O: 114

Q. Indicate the recorded growth value for this compound: COc1cc(-c2cc(-c3nc4cc(Cl)c(Cl)cc4[nH]3)[nH]n2)cc(OC)c1OC
A. 86.5

Q. Supply recorded growth for O=C1C(=O)N(CCCCn2cc(-c3ccccc3)nn2)c2ccccc21 here.
A. 122

====

Below, each entry is listed alongside its reported growth.
Test system: OVCAR-8 ovarian
Assay: NCI-60 one-dose screen, 48 h (100 = growth as untreated, 0 = no growth, -100 = all killed)
Conditions: 10 µM unless noted
About 83,000 compounds went through this panel and 20% of them were active in at least one assay; those are over-represented in the sample as a whole.
Field format: number, assumed %, no unit text.

Below, 6 compounds whose answers are already recorded.
C=C(C)[C@@H]1CC[C@]2(C)[C@H](CC=C3[C@@H]4CC(C)(C)CC[C@]4(C=O)CC[C@]32C)[C@@]1(C)CCCN: 77.8
NC(Cc1ccc(O)cc1)C(=O)N/N=C/c1ccccc1O (stereo unspecified): 96.2
Cn1cc(-c2csc(-c3cn(CCN)c4ccccc34)n2)c2cccnc21: 40.8
Cn1cccc1/C=C1/SC(=S)N(CCc2ccc(O)cc2)C1=O: 67.1
N#CCCCCCn1c2ccccc2c2c3[nH]c(=O)[nH]c(=O)c3c3c4ccccc4n(CCCCCC#N)c3c21: 27.4
CC(=O)O[C@H]1CC[C@]2(C)[C@H]3CC=C4[C@@H]5[C@H](C)[C@@H](C)CC[C@]5(C(=O)NCCNCCNCCN)CC[C@@]4(C)[C@]3(C)CC[C@H]2C1(C)C: 96

Q. Check the records and state growth for COc1cc2ncnc(Nc3ccc(OCc4cccc(F)c4)c(Cl)c3)c2cc1NC(=O)C1CCCC1
A. 76.9

Q. Indicate the recorded growth value for this compound: Brc1ccc(Cn2nnnc2-c2ccn(-c3ccccc3)n2)cc1
A. 110

Q. Provide one value: measured growth of Cn1cc(-c2csc(-c3cn(CCNC(=O)OC(C)(C)C)c4ccccc34)n2)c2cccnc21
A. 45

Q. Kindly indicate its recorded growth. Item: Oc1ccc(CCC2CCCC(CCc3ccc(OCCF)cc3)N2)cc1 (stereo unspecified)
A. 93.3

Q. Return growth (reported value) for this compound: N#Cc1c(-c2ccc(O)cc2)c2c(N)nn(-c3ccccc3)c2[nH]c1=O
A. 105

Q. Provide growth value for the following compound: C(=C\c1c[nH]c2ccccc12)/c1ccc2ccccc2n1
A. 78.7

Q. Return growth (reported value) for this compound: Cc1cc(N(CCCNc2ccnc3cc(Cl)ccc23)Cc2ccco2)nc(N2CCN(C)CC2)n1
A. 55.4

Q. Item COc1ccc(C2NC(=O)Nc3ccccc32)c(OC)c1 (stereo unspecified) : provide growth
A. 101

Q. Quote growth reported for N=c1ccc2nc3c(cc(N)c4ccccc43)oc-2c1 please.
A. -54.1

Q. Could you please provide reported growth for CCCCC/C(=C\c1ccccc1)C1OC(C)C(C)O1 (stereo unspecified) ? Thanks!
A. 96.3

Q. # return recorded growth for entry Nc1ncnc2nc(Br)[nH]c12
A. 92.8

Q. Report measured growth; entry is COc1ccc(C2CC(=O)c3c(nc4ccc(Cl)cc4c3N)C2)cc1 (stereo unspecified)
A. 107

Q. Give the measured growth for N#CC1=C(N)Oc2c(c(N)nn2-c2ccccc2)C1c1ccc(Cl)cc1 (stereo unspecified)
A. 95.4

Q. Please list growth recorded for the compound Cc1cc(C)nc(NC(N)=NCCc2ccccc2)n1
A. 53.4

Q. Please indicate growth recorded for O=C(O)/C(=C/c1ccc(O)cc1)c1ccccc1
A. 95.7

Q. Give growth for the following compound: COc1cc2nc(Cl)nc(Nc3cccc(C(=O)/C=C/c4ccc(F)cc4)c3)c2cc1OC
A. 67.3

Q. Give growth for Fc1ccc(NCc2nnc(-c3ccc(Cl)cc3)o2)cc1
A. 79.9

Q. Give me measured growth, please, for this compound: Cc1ccc(N(CC(=O)Nc2ccc(S(=O)(=O)N3CCC(N4CCCC4)CC3)cc2)S(=O)(=O)c2ccc(Cl)cc2)cc1
A. 55.2

Q. Consider the compound N#C/C(=C\c1ccc(-c2ccccc2)o1)c1nc(-c2ccco2)cs1 . State its measured growth.
A. 96.9

====

Tested on: A549/ATCC NSCLC
Experiment: NCI-60 one-dose screen, 48 h
Details: 10 µM unless noted
The panel holds about 83,000 compounds, 20% with a hit somewhere; the sample as a whole holds those more often. Activity calls are given as the source filed them. How the source made its calls: active means growth percent below 10; inactive means the rest.
Outcome field: choose from t = active, f = inactive

Fc1ccc(NCc2nnc(-c3ccc(Cl)cc3)o2)cc1: f
NC1=NN=C2N(N)C(=O)c3cnn(-c4ccccc4)c3N2c2nc(-c3ccccc3)cc(-c3ccccc3)c21: f
C[C@H]1OC(=O)/C=C/[C@@H](O)[C@@H](O)CCCCCCCC[C@@H]1O: f
C#CCN=C[C@]12CC[C@@H](C(=C)C)[C@@H]1[C@H]1CC[C@@H]3[C@@]4(C)CCC(=O)C(C)(C)[C@@H]4CC[C@@]3(C)[C@]1(C)CC2: f
Cc1ccncc1C(=O)O: f
COC(=O)[C@]12CC[C@@H](C)[C@H](C)[C@@H]1C1=CC(=O)[C@@H]3[C@@]4(C)C[C@@H](OC(C)=O)[C@H](OC(C)=O)[C@@](C)(COC(C)=O)[C@@H]4C(=O)C[C@@]3(C)[C@]1(C)CC2: f
CCCCCCCC(=O)SCC/C=C/[C@@H]1CC(=O)NCc2cccc(n2)CN(Cc2ccc3ccccc3c2)CC(=O)N[C@@H](C(C)C)C(=O)O1: f
O=S(=O)(NCCNc1cc(-c2cn(-c3ccccc3)nc2-c2cccc(O)c2)ccn1)c1ccc(Br)cc1: f

Q. What was the test verdict on Cn1cc(-c2csc(-c3c[nH]c4ccccc34)n2)c2cccnc21 ?
A. f

Q. Would you mind telling me which call this test gave Nc1c(C(=O)Nc2cccc3ccccc23)sc2nc3c(cc12)CCCC3 ?
A. f

Q. What did the test return for CCCC(=O)N1CCCCC1CC (stereo not given) ?
A. f

Q. Hello, I am checking results. What call was entered for Oc1ccc(Nc2ccccc2)cc1 ?
A. f

Q. Kindly provide the recorded test outcome for the following compound: COC(=O)[C@]12CC[C@@H](C)[C@H](C)[C@@H]1C1=CC[C@@H]3[C@@]4(C)C[C@@H](O)OC[C@](C)(C=O)C4C(=O)C[C@@]3(C)[C@]1(C)CC2 (stereo not given in full)
A. t

Q. Record request — test call for O=c1c(CNc2ccc(S(=O)(=O)Nc3ncccn3)cc2)coc2ccccc12
A. f

Q. // return assay outcome for COc1cc2nc(Cl)nc(Nc3cccc(C(=O)/C=C/c4ccc(Cl)cc4)c3)c2cc1OC
A. f

====

Tested on: MDA-MB-231 breast
Assay: NCI-60 one-dose screen, 48 h (100 = growth as untreated, 0 = no growth, -100 = all killed)
Conditions: 10 µM unless noted
Compounds without any hit were thinned out: in the full panel of roughly 83,000, 20% have a hit.
Measured Attribute: growth (%)
Form entry: value (%) — number only.

Recorded growth, per entry:
CC(C)C[C@@H](NC(=O)[C@@H](Cc1ccccc1)NC(=O)c1cnccn1)B1O[C@H]2[C@H](O)[C@@H](C(=O)NCCCC[C@@H]3NC(=O)[C@@H](Cc4ccccc4)NC(=O)[C@H](CC(=O)O)NC(=O)CNC(=O)[C@H](CCCN=C(N)N)NC3=O)O[C@@H](CN)[C@H]2O1: -9.73
CCCC1CCCCN1C(=O)OCC(C)C (stereo not drawn): 109
O=C(/C(=C(\C(=O)c1ccccc1)c1ccccc1)c1ccccc1)c1ccccc1: 66.7
CC(C)(C)c1ccc(OCCCCCCCN2CCNCC2)cc1: 19.3
O=C(NCN1C(=O)c2cccc3cccc(c23)C1=O)N1CCC(Cc2ccccc2)CC1: 98.2

Q. Output measured growth for this item: COc1cccc2c1C(=O)c1c(O)c3c(c(O)c1C2=O)C[C@@](O)(C(=O)CO)C[C@@H]3OC1C[C@H](N)[C@H](O)[C@H](C)O1 (stereo partly drawn)
A. -9.32
